Listed here are compounds together with their documented half-life.
- test: Half life in mouse at 5 mg/kg, po
- Type: ADME, organism-based
- Parameters: dose 5 mg/kg, route oral
- protocol_conditions: in vivo

>  <record_smiles>
COc1ccc(NC(=O)N2CCNC[C@@H]2COc2cccnc2)cc1.Cl

>  <output_unit>
h

>  <half-life>
1.73

$$$$
>  <record_smiles>
Cl.c1cncc(OC[C@H]2CNCCN2c2nc3ncccc3o2)c1

>  <output_unit>
h

>  <half-life>
1.63

$$$$

---

- experimental_target: CYP2D6 (Homo sapiens, UniProt P10635)
- Sequence (P10635 whole entry): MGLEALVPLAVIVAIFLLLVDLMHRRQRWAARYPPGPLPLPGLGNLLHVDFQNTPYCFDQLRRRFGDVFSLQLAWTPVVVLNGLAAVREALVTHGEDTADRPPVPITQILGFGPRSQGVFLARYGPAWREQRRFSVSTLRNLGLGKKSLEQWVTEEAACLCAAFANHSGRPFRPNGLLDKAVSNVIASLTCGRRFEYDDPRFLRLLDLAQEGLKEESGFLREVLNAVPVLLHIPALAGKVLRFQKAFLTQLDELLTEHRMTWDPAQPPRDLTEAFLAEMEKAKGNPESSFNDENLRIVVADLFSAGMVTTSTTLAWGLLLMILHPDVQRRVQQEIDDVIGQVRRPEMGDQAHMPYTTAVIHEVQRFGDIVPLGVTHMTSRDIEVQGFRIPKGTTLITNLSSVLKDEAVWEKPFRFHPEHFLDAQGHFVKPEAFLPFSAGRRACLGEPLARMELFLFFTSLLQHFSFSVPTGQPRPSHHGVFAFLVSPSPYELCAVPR
- test: Inhibition of CYP2D6 (unknown origin) at 10 uM
- Format: ADME
Listed here are compounds together with their documented inhibition at 10 µM.
quantity_kind: inhibition at 10 µM (%)

>  <compound>
c1cncc(OCC2CNCCN2c2nc3ccccc3o2)c1 (racemic)

>  <quantity_kind>
inhibition at 10 µM

>  <reading>
87

$$$$
>  <compound>
Cl.c1cncc(OC[C@H]2CNCCN2c2nc3ncccc3o2)c1

>  <quantity_kind>
inhibition at 10 µM

>  <reading>
1

$$$$
>  <compound>
O=C(Nc1ccc(Br)cc1F)N1CCNCC1COc1cccnc1 (racemic)

>  <quantity_kind>
inhibition at 10 µM

>  <reading>
41

$$$$
>  <compound>
O=C(c1ccccc1)c1ccc(NC(=O)N2CCNCC2COc2cccnc2)cc1 (racemic)

>  <quantity_kind>
inhibition at 10 µM

>  <reading>
7

$$$$
>  <compound>
Cc1cc(NC(=O)N2CCNCC2COc2cccnc2)ccc1Br (racemic)

>  <quantity_kind>
inhibition at 10 µM

>  <reading>
85

$$$$
>  <compound>
COc1ccc(NC(=O)N2CCNCC2COc2cccnc2)cc1Cl (racemic)

>  <quantity_kind>
inhibition at 10 µM

>  <reading>
25

$$$$
>  <compound>
COc1ccc(NC(=O)N2CCNCC2COc2cccnc2)cc1 (racemic)

>  <quantity_kind>
inhibition at 10 µM

>  <reading>
0

$$$$
>  <compound>
COc1ccc2nc(N3CCNC[C@@H]3COc3cccnc3)sc2c1

>  <quantity_kind>
inhibition at 10 µM

>  <reading>
50

$$$$
>  <compound>
Fc1cc(F)c2nc(N3CCNCC3COc3cccnc3)sc2c1 (racemic)

>  <quantity_kind>
inhibition at 10 µM

>  <reading>
72

$$$$
>  <compound>
Fc1cccc2sc(N3CCNCC3COc3cccnc3)nc12 (racemic)

>  <quantity_kind>
inhibition at 10 µM

>  <reading>
60

$$$$

---

- experimental_target: hERG (KCNH2) (Homo sapiens, UniProt Q12809)
- Sequence (Q12809 whole entry): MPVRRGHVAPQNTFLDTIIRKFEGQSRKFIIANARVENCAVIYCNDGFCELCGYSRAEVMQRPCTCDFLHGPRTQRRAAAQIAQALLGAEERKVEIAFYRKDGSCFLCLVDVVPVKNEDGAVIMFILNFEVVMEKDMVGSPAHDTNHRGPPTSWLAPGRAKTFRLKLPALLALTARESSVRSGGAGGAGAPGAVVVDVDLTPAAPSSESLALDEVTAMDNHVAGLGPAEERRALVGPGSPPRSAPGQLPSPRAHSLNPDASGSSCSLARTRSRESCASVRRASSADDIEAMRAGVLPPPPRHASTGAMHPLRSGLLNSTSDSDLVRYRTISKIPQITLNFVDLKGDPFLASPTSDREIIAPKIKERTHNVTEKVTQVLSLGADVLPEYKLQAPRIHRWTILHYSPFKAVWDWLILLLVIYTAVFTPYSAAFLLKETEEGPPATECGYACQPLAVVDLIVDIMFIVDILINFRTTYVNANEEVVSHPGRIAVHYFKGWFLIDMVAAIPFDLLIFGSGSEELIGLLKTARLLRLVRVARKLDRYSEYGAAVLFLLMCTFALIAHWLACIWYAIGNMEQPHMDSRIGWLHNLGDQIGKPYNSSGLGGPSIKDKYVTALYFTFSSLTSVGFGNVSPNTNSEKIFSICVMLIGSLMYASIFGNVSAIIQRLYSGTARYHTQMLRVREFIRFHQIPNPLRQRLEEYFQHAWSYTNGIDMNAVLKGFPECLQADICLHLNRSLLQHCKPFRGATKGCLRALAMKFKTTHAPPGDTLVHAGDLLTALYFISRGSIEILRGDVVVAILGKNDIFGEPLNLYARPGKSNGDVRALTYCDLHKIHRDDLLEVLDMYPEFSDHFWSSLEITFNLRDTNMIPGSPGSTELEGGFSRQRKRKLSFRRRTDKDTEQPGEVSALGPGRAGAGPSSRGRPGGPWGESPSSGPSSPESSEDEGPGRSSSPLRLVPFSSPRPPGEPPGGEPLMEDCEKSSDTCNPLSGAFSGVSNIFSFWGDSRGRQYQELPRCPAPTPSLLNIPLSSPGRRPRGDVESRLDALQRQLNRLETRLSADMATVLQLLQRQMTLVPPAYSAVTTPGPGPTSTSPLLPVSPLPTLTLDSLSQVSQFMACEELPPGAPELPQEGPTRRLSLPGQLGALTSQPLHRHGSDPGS
- test: Inhibition of human ERG at 1 uM by whole-cell voltage clamp assay
Short version: inhibition at 1 µM at least 20% is Yes, less is No.

>  <compound>
Fc1cc(F)c2nc(N3CCNCC3COc3cccnc3)sc2c1 (racemic)

>  <class>
Yes

$$$$
>  <compound>
COc1ccc(NC(=O)N2CCNCC2COc2cccnc2)cc1 (racemic)

>  <class>
No

$$$$
>  <compound>
c1cncc(OCC2CNCCN2c2nc3ccccc3o2)c1 (racemic)

>  <class>
Yes

$$$$
>  <compound>
Cc1cc(NC(=O)N2CCNCC2COc2cccnc2)ccc1Br (racemic)

>  <class>
Yes

$$$$
>  <compound>
Fc1cccc2sc(N3CCNCC3COc3cccnc3)nc12 (racemic)

>  <class>
No

$$$$
>  <compound>
O=C(c1ccccc1)c1ccc(NC(=O)N2CCNCC2COc2cccnc2)cc1 (racemic)

>  <class>
Yes

$$$$
>  <compound>
COc1ccc2nc(N3CCNC[C@@H]3COc3cccnc3)sc2c1

>  <class>
Yes

$$$$
>  <compound>
COc1ccc(NC(=O)N2CCNCC2COc2cccnc2)cc1Cl (racemic)

>  <class>
No

$$$$
>  <compound>
O=C(Nc1ccc(Br)cc1F)N1CCNCC1COc1cccnc1 (racemic)

>  <class>
No

$$$$

This collection of values is drawn from ChEMBL document CHEMBL3259628.
